Value source: paper PMC10397247

Target: T1, P6-AA-1HAA-V
T1 chain: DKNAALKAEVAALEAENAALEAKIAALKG
Assay: two-hybrid library CCmax;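 further: natural log of median RNA to DNA barcode read ratio; higher means stronger binding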
Settings: mean of both orientations
Property label: interaction score

Reference set (3 entries):
{"Binder": "DENAALEAKVAALKAKNAALKAEIAALEG [P5-AA-1HAA-V]", "interaction score": 2.09}
{"Binder": "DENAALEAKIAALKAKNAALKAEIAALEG [4H1401-AA]", "interaction score": 2.18}
{"Binder": "DENAALEAKLAALKAKNAALKAEIAALEG [P5-AA-1HAA-L]", "interaction score": 2.31}

# get_value(readout='interaction score', item= DENAALEAKHAALKAKNAALKAEIAALEG [P5-AA-1HAA-H] )
2.15

What do you get for DENAALEAKNAALKAKNAALKAEIAALEG [P5-AA-1HAA-N] ?
1.86

What do you get for DENAALEAKYAALKAKNAALKAEIAALEG [P5-AA-1HAA-Y] ?
1.79

What do you get for DENAALEAKRAALKAKNAALKAEIAALEG [P5-AA-1HAA-R] ?
2.18

What do you get for DENAALEAKEAALKAKNAALKAEIAALEG [P5-AA-1HAA-E] ?
1.57

What do you get for DENAALEAKKAALKAKNAALKAEIAALEG [P5-AA-1HAA-K] ?
2.05
